Experiment: Solubility of the product
Assay type: physicochemical
Conditions: methanol, organic solvent or mixture; read-out: soluble in methanol
Procedure: 14,3 g (0,06 mole) of pyrrolidinoacetic acid 3-chloro-anilide are dissolved in 50 ml of ethyl acetate and then 9,4 g (0,078 mole) of allyl bromide are added. […]
measure: solubility (mg/mL)
The figure you give is taken to be in mg/mL; do not add the unit.

# input compound: C=CC[N+]1(CC(=O)Nc2cccc(Cl)c2)CCCC1 ; wanted: its solubility 300
